# Test system: Human alphaherpesvirus 2
# TEST SUMMARY: Effective dose required to inhibit cell growth against HSV-2 (186); Value ranges from 0.3-0.7
# Type: functional
# APPLIED CONDITIONS: read-out: ED50 (the source's name)
PROPERTY NAME: EC50 (nM)
Give bare numbers, in nM.

Given item Nc1nc(O)c2ncn([C@@H]3C(F)[C@H](CO)C3CO)c2n1 (single isomer, unassigned; (-)) , the value recorded as its EC50 is 300

----------
# Tested on: Human alphaherpesvirus 3
# TEST SUMMARY: Effective dose required to inhibit cell growth against VZV (Ellen); Value ranges from 0.7-1.7
# Assay type: functional
# APPLIED CONDITIONS: read-out: ED50 (the source's name)
PROPERTY NAME: EC50 (nM)
Numbers only, in nM.

Hey, Human alphaherpesvirus 3 data for Nc1nc(O)c2ncn([C@@H]3C(F)[C@H](CO)C3CO)c2n1 (single isomer, unassigned; (-)) : EC50 came out at 700

----------
# System: Human betaherpesvirus 5
# TEST SUMMARY: Effective dose required to inhibit cell growth against HCMV (AD169); Value ranges from 20-40
# Assay type: functional
# APPLIED CONDITIONS: read-out: ED50 (the source's name)
PROPERTY NAME: EC50
Express the reported value numerically, then name its unit.

Looking up Nc1nc2c(ncn2COCCO)c(=O)[nH]1 [ACYCLOVIR] , I found its EC50 recorded as 20 µM
